Ref: PubChem BioAssay (NCI)

assay: NCI Yeast Anticancer Drug Screen. Data for the mlh1 rad18 strain (AID 175); conditions: S. cerevisiae mlh1 rad18 strain growth inhibition; at 5.0 µM (retest, dose inferred, filed as 0.5)
About 79,000 compounds went through this panel and 15% of them were active in at least one assay; those are over-represented in the sample as a whole. Active and inactive are the calls of the source. Rule as the data show it: active = growth inhibition above about 70%; inactive = the rest.
Use one of these outcomes when replying: Yes (active), No (inactive)

(Q) Dear colleague, could you share the recorded outcome for O=C(Nc1cccc(C(F)(F)F)c1)Oc1ccc(Cl)c2cccnc12 when you have a moment?
(A) Yes

(Q) Dear colleague, could you share the recorded outcome for COC(=O)C(=[N+]=[N-])C(=O)c1ccc([N+](=O)[O-])o1 when you have a moment?
(A) No

(Q) Dear colleague, could you share the recorded outcome for CN1CCC(CN2c3ccccc3Sc3ccccc32)C1 (stereo not given) when you have a moment?
(A) No

(Q) Dear colleague, could you share the recorded outcome for N#C/C(=N\O)C(N)=O when you have a moment?
(A) No

(Q) Dear colleague, could you share the recorded outcome for O=C(c1ccccc1)c1ccc(O)c2ncccc12 when you have a moment?
(A) No

(Q) Dear colleague, could you share the recorded outcome for C=C1C(=O)OC2CC1C(OC(=O)/C=C/c1ccccc1)C/C(C)=C/CC/C(C)=C/CCC2(C)O (stereo not given) when you have a moment?
(A) Yes

(Q) Dear colleague, could you share the recorded outcome for C=[CH][Sn]([CH]=C)([O]c1cccc2cccnc12)[O]c1cccc2cccnc12 when you have a moment?
(A) No

(Q) Dear colleague, could you share the recorded outcome for COc1ccc2nc3cc(Cl)ccc3c(NCCCCCN3CCCCC3)c2c1 when you have a moment?
(A) No

(Q) Dear colleague, could you share the recorded outcome for CCc1oc2ccccc2c1C(=O)c1cc(Br)c(O)c(Br)c1 when you have a moment?
(A) No

(Q) Dear colleague, could you share the recorded outcome for CC[n+]1ccc(Nc2ccc(NC(=O)c3ccc(Nc4cc[n+](CC)c5ccc([N+](=O)[O-])cc45)cc3)cc2)cc1 when you have a moment?
(A) Yes

(Q) Dear colleague, could you share the recorded outcome for O=c1c2ccccc2ncn1O when you have a moment?
(A) No

(Q) Dear colleague, could you share the recorded outcome for Oc1ccc2ccccc2c1N=Nc1nccs1 when you have a moment?
(A) No

(Q) Dear colleague, could you share the recorded outcome for CCCCCCCCCCCCCCCC[N+]1(C)CCCC1c1cccnc1 (stereo not given) when you have a moment?
(A) Yes

(Q) Dear colleague, could you share the recorded outcome for COc1ccc2c(c1)C(OC)C1c3c(cc4c(c3-2)OCO4)CCN1C (stereo not given) when you have a moment?
(A) No

(Q) Dear colleague, could you share the recorded outcome for CCCCNC(=O)C(C)O (stereo not given) when you have a moment?
(A) No

(Q) Dear colleague, could you share the recorded outcome for CCCCC(CCc1ccc([N+](=O)[O-])cc1)(C(C)=O)C(=O)OCC (stereo not given) when you have a moment?
(A) No

(Q) Dear colleague, could you share the recorded outcome for Clc1ccc(Cc2nc3ccccc3s2)cc1 when you have a moment?
(A) No

(Q) Dear colleague, could you share the recorded outcome for O=C(Nc1ccc(Cl)c(Cl)c1)OCc1ccco1 when you have a moment?
(A) No

(Q) Dear colleague, could you share the recorded outcome for Cc1ccc(/C=N/Nc2cc(C)c3cccc(C)c3n2)s1 when you have a moment?
(A) No

(Q) Dear colleague, could you share the recorded outcome for CCCN(CCC)C(=O)c1ccc(C)cc1 when you have a moment?
(A) No

(Q) Dear colleague, could you share the recorded outcome for CCCCCCCCc1cc(Cl)c(O)c(Cl)c1 when you have a moment?
(A) No

(Q) Dear colleague, could you share the recorded outcome for C/C(=N\NC(=S)N1CCC1)c1ccccn1 when you have a moment?
(A) Yes

(Q) Dear colleague, could you share the recorded outcome for CCN(CC)CCNC(Cc1ccccc1)c1ccc(OCc2ccccc2)cc1 (stereo not given) when you have a moment?
(A) No

(Q) Dear colleague, could you share the recorded outcome for S=c1sc2ccccc2n1CCNc1ccccc1 when you have a moment?
(A) No

(Q) Dear colleague, could you share the recorded outcome for COc1ccc(C(Cn2ccnc2)Sc2ccc(Cl)c(Cl)c2)cc1 (stereo not given) when you have a moment?
(A) Yes
